System: NCI/ADR-RES
Assay: NCI tumour cell line growth inhibition, 48 h
Activity calls are given as the source filed them. No stated cut-off is given here; in the data, active = GI50 up to about 1.1 µM and inactive = higher.
value_type: GI50

query: Please report the measured GI50 for COc1ccc2nc3cccc([N+](=O)[O-])c3c(NCCC(=O)O)c2c1 tested on NCI/ADR-RES.
result: > 10 µM (inactive)

query: Please report the measured GI50 for O=C(c1cccs1)N(C(=O)N1CCN(c2ccccc2)CC1)S(=O)(=O)c1ccccc1 tested on NCI/ADR-RES.
result: 24 µM (inactive)

query: Please report the measured GI50 for C/C(=C\c1ccc(Cl)c(Cl)c1)[N+](=O)[O-] tested on NCI/ADR-RES.
result: 3.41 µM (inactive)

query: Please report the measured GI50 for Fc1cccc(F)c1C1SCc2nc3cc(Cl)c(Cl)cc3n21 (configuration not stated) tested on NCI/ADR-RES.
result: > 100 µM (inactive)

query: Please report the measured GI50 for CC1=C2C(=O)O[C@@H](c3ccoc3)[C@]2(C)CCC1=O tested on NCI/ADR-RES.
result: > 100 µM (inactive)

query: Please report the measured GI50 for Cc1nnc2n1-c1ccccc1C(=S)N1CSCC21 (configuration not stated) tested on NCI/ADR-RES.
result: > 100 µM (inactive)

query: Please report the measured GI50 for O/N=C(/CC(O)(C(F)(F)F)C(F)(F)F)c1ccccc1 tested on NCI/ADR-RES.
result: > 10 µM (inactive)

query: Please report the measured GI50 for CNC(=O)OCC1=C(COC(=O)NC)CN(c2ccccc2)C1 tested on NCI/ADR-RES.
result: > 100 µM (inactive)

query: Please report the measured GI50 for O=C1c2ccccc2-c2c1c1ccccc1c(=O)n2-c1cccnc1 tested on NCI/ADR-RES.
result: 45.8 µM (inactive)

query: Please report the measured GI50 for CCCC#CCOC(=O)c1cc([N+](=O)[O-])cc([N+](=O)[O-])c1 tested on NCI/ADR-RES.
result: > 100 µM (inactive)

query: Please report the measured GI50 for O=C1C[C@H](Sc2ccccc2)C2(OCCO2)[C@@H](Sc2ccccc2)C1 tested on NCI/ADR-RES.
result: 1.88 µM (inactive)

query: Please report the measured GI50 for O=C1C=Cc2c(Br)sc(Br)c21 tested on NCI/ADR-RES.
result: 36.1 µM (inactive)

----------
Test system: SK-MEL-28
Experiment: NCI tumour cell line growth inhibition, 48 h
Activity calls are given as the source filed them. No stated cut-off is given here; in the data, active = GI50 up to about 1.1 µM and inactive = higher.
value_type: GI50

query: Please report the measured GI50 for COc1cccc(OC)c1NC(=O)C(=O)Nn1c(NNC(=O)c2ccncc2)nc2ccccc2c1=O tested on SK-MEL-28.
result: > 100 µM (inactive)

query: Please report the measured GI50 for N#CCc1c(F)c(F)c(F)c(F)c1F tested on SK-MEL-28.
result: > 100 µM (inactive)

query: Please report the measured GI50 for Cc1ccc(Nc2[nH]c(=O)[nH]c(=O)c2C)cc1Cl tested on SK-MEL-28.
result: > 100 µM (inactive)

query: Please report the measured GI50 for Nc1ccc2ccc(-c3ccc[nH]3)nc2n1 tested on SK-MEL-28.
result: > 100 µM (inactive)

query: Please report the measured GI50 for N#CCOc1ccc(/C=C/C(=O)c2ccc(Cl)cc2)cc1 tested on SK-MEL-28.
result: 33.7 µM (inactive)

query: Please report the measured GI50 for COc1ccc(C(=O)/C=C/c2ccc(OCC(=O)N3CCN(c4ccccc4)CC3)cc2)cc1 tested on SK-MEL-28.
result: > 100 µM (inactive)

query: Please report the measured GI50 for COC(=O)[C@@]12OC[C@]34C([C@@H](O)C1O)[C@@]1(C)CC(=O)C(OC(=O)CC(C)C(F)(F)F)=C(C)C1C[C@H]3OC(=O)[C@H](O)[C@H]42 (some centres not stated) tested on SK-MEL-28.
result: 1.53 µM (inactive)

query: Please report the measured GI50 for CCc1ccc(Nc2ccc([N+](=O)[O-])cc2[N+](=O)[O-])cc1 tested on SK-MEL-28.
result: > 100 µM (inactive)

query: Please report the measured GI50 for CC(C)(C)OC(=O)NCCC1SC2C=CC1C2 (configuration not stated) tested on SK-MEL-28.
result: > 100 µM (inactive)

query: Please report the measured GI50 for C/C(Nc1ccc(Cl)cc1Cl)=C1/CCOC1=O tested on SK-MEL-28.
result: > 100 µM (inactive)

query: Please report the measured GI50 for CN(C)CCOc1ccc2[nH]c(C(=O)N3CC(CCl)c4c3cc(NC(=O)OCc3ccc([N+](=O)[O-])cc3)c3ccccc43)cc2c1 (configuration not stated) tested on SK-MEL-28.
result: 1.64 µM (inactive)

query: Please report the measured GI50 for NCCCOc1ccc([N+](=O)[O-])cc1Cl tested on SK-MEL-28.
result: > 100 µM (inactive)

query: Please report the measured GI50 for CC(C)=CC1(C)/C(=N\O)C(C)(CC(C)C)C(=O)N1O (configuration not stated) tested on SK-MEL-28.
result: > 100 µM (inactive)

query: Please report the measured GI50 for COC(=O)/C=C\C(C#N)(C#N)/N=C/c1cccs1 tested on SK-MEL-28.
result: 8.83 µM (inactive)

query: Please report the measured GI50 for COc1cc2c(cc1O)C1Cc3ccc(OC)c(O)c3C[N+]1(C)CC2 (configuration not stated) tested on SK-MEL-28.
result: > 100 µM (inactive)

query: Please report the measured GI50 for c1ccc2cc(C3NCCc4nc[nH]c43)ccc2c1 (configuration not stated) tested on SK-MEL-28.
result: > 100 µM (inactive)

query: Please report the measured GI50 for Nn1c(S)nnc1N/N=C1/C(=O)Nc2ccccc21 tested on SK-MEL-28.
result: 33.7 µM (inactive)

----------
Tested on: HOP-62
Assay: NCI tumour cell line growth inhibition, 48 h
Activity calls are given as the source filed them. Cut-off read from the data, not from the text of the source: active = GI50 up to about 1.1 µM and inactive = higher.
Choose one outcome from this list and give only that: active, inactive

query: Kindly provide the recorded test outcome for the following compound: COc1cc2oc(-c3ccccc3)cc(=O)c2c(O)c1C
result: inactive

query: Kindly provide the recorded test outcome for the following compound: Cc1ccc(/N=N/C(=N\NC(=O)c2ccc(C)cc2)c2ccc(N(CCC#N)CCC#N)cc2C)cc1
result: inactive

query: Kindly provide the recorded test outcome for the following compound: COc1cc2c(c(OC)c1OC)-c1ccc(SC)c(=O)cc1[C@@H](NCc1ccc([N+](=O)[O-])cc1)CC2
result: active

query: Kindly provide the recorded test outcome for the following compound: CCCCN(CCCC)C(=O)C(=O)C(C)C(=O)CC (stereo not given)
result: inactive

query: Kindly provide the recorded test outcome for the following compound: Cn1cnc([N+](=O)[O-])c1Sc1nc2cc(Cl)c(F)cc2[nH]1
result: inactive

----------
Tested on: K562
Assay: NCI tumour cell line growth inhibition, 48 h
The source made the active and inactive calls. Rule as the data show it: active = GI50 up to about 1.1 µM and inactive = higher.
Please go through the items and note down their GI50.

query: Kindly indicate its recorded GI50. Item: O=C(O)C1=CNC(C(=O)O)=NN1
result: > 100 µM (inactive)

query: Kindly indicate its recorded GI50. Item: C[C@]12CC(C#N)C(=O)C(O)=C1CC[C@@H]1C2CC[C@@]2(C)C1CC[C@@H]2O (some centres undefined)
result: 46.9 µM (inactive)

query: Kindly indicate its recorded GI50. Item: COc1cc(/C=C2\CCC/C(=C\c3cc(OC)c(O)c(OC)c3)C2=O)cc(OC)c1O
result: 4.81 µM (inactive)

query: Kindly indicate its recorded GI50. Item: CC(=O)n1cc(C2CC23N=C(c2ccccc2)OC3=O)c2ccccc21 (centres undefined)
result: 13.7 µM (inactive)

// provenance: ChEMBL document CHEMBL1201862
